- Test system: Trypanosoma brucei 6-phosphofructokinase (PFK)
- Method: Confirmatory Assay to Find Inhibitors of T. brucei phosphofructokinase: High F6P
- Condition Context: Kinase-Glo luminescence; series mostly up to 57.5 µM
Inconclusive results are not listed. Active and inactive are the calls of the source. The call rests on the fitted dose curve; in most records, active means well fitted inhibition curve with a large enough effect; inconclusive means small, poorly fitted or top-dose-only effect; inactive means flat fitted curve, though single readings scatter.
Respond only with the outcome that fits, drawn from active, inactive

Example entries and their recorded answers appear below.
Chem Smiles: Cc1cc(NS(=O)(=O)c2ccc(NC(=O)Cc3ccc(Cl)cc3)cc2)no1
Class Label: active

Chem Smiles: O=C(Cc1ccc(Cl)c(Cl)c1)Nc1ccc(S(=O)(=O)Nc2cccc(C(=O)O)c2)cc1
Class Label: active

Chem Smiles: Cc1cc(NS(=O)(=O)c2ccc(C(=O)NCc3ccc(Cl)c(Cl)c3)cc2)no1
Class Label: active

Chem Smiles: CCOC(=O)c1cccc(NS(=O)(=O)c2ccc(NC(=O)Cc3ccc(Cl)c(Cl)c3)cc2)c1
Class Label: inactive

Chem Smiles: O=C(Cc1ccc(Cl)c(Cl)c1)Nc1ccc(S(=O)(=O)O)cc1
Class Label: active

Tell me the assay call for Cc1cc(NS(=O)(=O)c2ccc(NC(=O)Cc3ccc(C)c(C)c3)cc2)no1 please.
inactive

What is the recorded call for this compound in the test? Cc1cc(NS(=O)(=O)c2ccc(NC(=O)Cc3ccc(Cl)c(Cl)c3)cc2)n(C)n1
active

Assay outcome for COc1ccc(CC(=O)Nc2ccc(S(=O)(=O)Nc3cc(C)on3)cc2)cc1OC : what was it?
inactive

# outcome recorded in this test, key = O=C(Cc1ccc(Cl)c(Cl)c1)Nc1ccc(S(=O)(=O)Nc2ccon2)cc1
active
